assay: Unbound brain-to-plasma concentration ratio in Han Wistar rat at 10 mg/kg,po and measured after 16 hrs by LC-MS/MS analysis; assay type: ADME, organism-based; settings: read-out: K(p,uu,brain)
QUANTITY KIND: Kp uu at 16 h

COc1cc2ncnc(Nc3ccc(F)c(Cl)c3)c2cc1OCCCN1CCOCC1 [GEFITINIB]: 0.009

---

test: AUC (0 to infinity) in Sprague-Dawley rat at 2 mg/kg, iv and measured upto 24 hrs by LC-MS/MS analysis; type: ADME, organism-based; parameters: dose 2 mg/kg, time < 24 hrs, route iv; settings: in vivo
QUANTITY KIND: AUC(0-inf) (µM·h)

COc1cc2ncnc(Nc3cccc(Cl)c3F)c2cc1OCCON1CCN(C)CC1: 0.61
